target: PDEδ farnesyl pocket (Homo sapiens, UniProt O43924); assay: Displacement titrations of labeled probe (fluorescence polarization) for the determination of KD values; assay type: binding; settings: read-out: KD
Sequence (O43924 whole entry): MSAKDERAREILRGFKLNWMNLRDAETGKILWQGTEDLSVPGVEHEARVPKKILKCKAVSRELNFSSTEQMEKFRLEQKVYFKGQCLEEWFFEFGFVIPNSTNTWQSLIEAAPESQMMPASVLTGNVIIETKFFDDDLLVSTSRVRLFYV
Readout: Kd

q: Enter reported Kd observed with PDEδ farnesyl pocket (Homo sapiens, UniProt O43924) for O=C(NCCCN1CCN(c2ccc(O)cc2)CC1)C1CCN(c2nc3ccccc3n2Cc2cccc(F)c2)CC1 [Compound 18]
a: 100 to 1000 nM

====

Molecular target: PDEδ farnesyl pocket (Homo sapiens)
Assay: Displacement titrations of labeled probe (fluorescence polarization) for the determination of KD values
Type: binding
Conditions: Kd for the PDEδ farnesyl pocket; read-out: KD
Source text: The resulting solution was serially diluted, holding the concentrations of S54, PDEδ and DMSO constant. The sealed plates were shaken overnight at room temperature and centrifuged at the beginning of the next day. […]
Readout: Kd

• O=C(NCc1ccccc1)C(C1CCCCC1)n1c(-c2ccccc2)nc2ccccc21 (stereo not drawn) = 100 to 1000 nM
• Ic1ccc(Cn2c(-c3ccc(I)o3)nc3ccccc32)o1 = 25 to 100 nM
• O=C(NCCN1CCCC1)C1CCN(c2nc3ccccc3n2Cc2ccccc2F)CC1 = 100 to 1000 nM

Here is another molecule to look at.
q: Enter reported Kd observed with PDEδ farnesyl pocket (Homo sapiens) for c1ccc(C2Nc3ccccc3-c3nc4ccccc4n32)nc1 (stereo not drawn)
a: > 1000 nM

====

Each entry below lists one item and its recorded Kd value.
target: PDEδ farnesyl pocket (Homo sapiens); test: Displacement titrations of labeled probe (fluorescence polarization) for the determination of KD values; format: binding; details: Kd for the PDEδ farnesyl pocket; read-out: KD

q: May I ask what Kd has been recorded for c1ccc(Cn2c(-c3ccc(OCCn4c(-c5ccccc5)nc5ccccc54)cc3)nc3ccccc32)cc1 [Compound 06] ?
a: 100 to 1000 nM

q: # repeat for Cc1ccc(-c2nc3ccccc3n2Cc2ccc(F)cc2)o1 [Compound 42]
a: 100 to 1000 nM

q: # repeat for c1ccc(CCn2c(-c3ccco3)nc3ccccc32)cc1 [Compound 26]
a: 100 to 1000 nM

q: # repeat for Cc1ccc(C)c(Cn2c(CCNC(=O)CCCC(C)O)nc3ccccc32)c1 (centres unmarked) [Compound 47]
a: > 1000 nM

q: # repeat for CC(C)(C)OC(=O)N1CCC(C(COc2ccc(-c3nc4ccccc4n3Cc3ccccc3)cc2)n2c(-c3ccccc3)nc3ccccc32)CC1 (centres unmarked) [Compound 08]
a: > 1000 nM

q: # repeat for COc1cccc(C(=O)C=Cc2nc3ccccc3n2Cc2ccccc2)c1 [Compound 49]
a: > 1000 nM

q: # repeat for Cc1ccccc1Cn1c(Cc2ccccc2)nc2ccccc21 [Compound 28]
a: > 1000 nM

q: # repeat for Cc1ccccc1Cn1c(CC(C)(C)C)nc2ccccc21 [Compound 34]
a: 25 to 100 nM

q: # repeat for C=C(C)Cn1c(-c2ccc(N(C)C)cc2)nc2ccccc21 [Compound 14]
a: 100 to 1000 nM

q: # repeat for O=C(c1ccccc1Cl)N1CCN(c2nc3ccccc3n2Cc2ccccc2)CC1 [Compound 46]
a: 100 to 1000 nM

q: # repeat for CCc1nc2ccccc2n1Cc1ccccc1F [Compound 33]
a: 100 to 1000 nM

q: # repeat for C#CCn1c(-c2ccccc2Br)nc2ccccc21 [Compound 38]
a: > 1000 nM

q: # repeat for C=CCOc1ccc(-c2nc3ccccc3n2Cc2ccccc2)cc1 [Compound S02]
a: > 1000 nM

Where these numbers come from: patent EP2698367A1
